B1: H2-Kb / Ed21 (parent complex)
chain 1: AQSVTQPDARVTVSEGASLQLRCKYSYFGTPYLFWYVQYPRQGLQLLLKYYPGDPVVQGVNGFEAEFSKSNSSFHLRKASVHWSDWAVYFCAVSMSGGYKVVFGSGTRLLVSP
chain 2: DSGVVQSPRHIIKEKGGRSVLTCIPISGHSNVVWYQQTLGKELKFLIQHYEKVERDKGFLPSRFSVQQFDDYHSEMNMSALELEDSAMYFCASSPRQTDYTFGSGTRLLVI
chain 3: not shown
chain 4: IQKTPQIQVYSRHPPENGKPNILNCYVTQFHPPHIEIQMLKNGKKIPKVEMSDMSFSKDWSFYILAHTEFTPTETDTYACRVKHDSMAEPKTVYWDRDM
chain 5: SIINFEKL

- Variants of: B1
- Assay Text: % of reporter cells activated (NFAT-GFP), raw; note: test concentration or dose not given here
Observation Type: ratio to parent
Numbers only.

[[record]]
variant_id = "chain 5 S1K"
readout_value = 0.664

[[record]]
variant_id = "chain 5 K7S"
readout_value = 0.785


Hello, I would appreciate it if you could give ratio to parent for each entry below.
1. chain 5 K7D
2. chain 5 I3E

[0.141, 0.924]

Hello, I would appreciate it if you could give ratio to parent for each entry below.
1. chain 5 K7G
2. chain 5 I2G
3. chain 5 N4M
4. chain 5 S1Y
5. chain 5 F5P
6. chain 5 E6V
7. chain 5 E6G

1. 0.605
2. 1
3. 0.00791
4. 0.97
5. 1.03
6. 0.0269
7. 0.785

Hello, I would appreciate it if you could give ratio to parent for each entry below.
1. chain 5 E6D
2. chain 5 S1H
3. chain 5 I3A
4. chain 5 F5M

0.964
0.979
0.872
0.981

Hello, I would appreciate it if you could give ratio to parent for each entry below.
1. chain 5 I3W
2. chain 5 K7R
3. chain 5 L8G
4. chain 5 I2N
5. chain 5 F5Q
6. chain 5 N4H
7. chain 5 E6W

0.869
1.02
0.966
1.01
0.939
0.47
0.0831

Hey, just so you know, these numbers are from paper PMC11480844.
